# ASSAY PROTOCOL: H1N1 influenza NS1A inhibitors, functional cell based assay (AID 504329)
# PARTICULARS: percent inhibition, at 12.5 µM, stronger effect = higher value
Screen size: about 340,000 compounds; about 1,000 (0.29%) were called active. Not all results are given here. Results with a measured potency or affinity are listed apart.
// values below are reported inhibition
Numeric answer only, unit % assumed.

Consider the worked cases shown below.
Name the recorded inhibition of the item Cn1nc(C(F)(F)F)c(CO)c1Sc1ccc(F)cc1 in your answer. 5.51

Check the records and state inhibition for COc1cccc(/C=N/NC(=S)Nc2cccnc2)c1 8.47

// Input: Oc1ccc(/C=N/NC(=S)Nc2cccnc2)cc1 . Output its inhibition only. -2.94

Give the measured inhibition for COc1ccccc1/C=N/NC(=S)Nc1cccnc1 2.47

Please indicate inhibition recorded for COc1ccc(C(CNC(=O)C2CC(=O)N(Cc3ccc(C)cc3)C2)N(C)C)cc1 (stereo unspecified) -3.01

Next item in the queue.
Answer with the recorded inhibition of Fc1c(F)c(F)c(/C=N/NC(=S)Nc2cccnc2)c(F)c1F only. 4.9
